TARGET DESC: Bcl-2-related protein A1 (Homo sapiens)
ASSAY NOTES: inhibitors of Bim binding to Bfl-1, dose response, biochemical, multiplexed, bead-based flow cytometry (AID 1320)
CONDITION: Bim peptide-Bfl-1 binding, fluorescence
Active and inactive are the calls of the source. No rule for the calls is given here.
Outcomes: 1.0 for active, 0.0 for inactive

COMPOUND	QUALITATIVE LABEL
O=C(N/N=C/c1ccc(O)c(O)c1O)/C(=C/c1ccc([N+](=O)[O-])cc1)NC(=O)c1ccccc1	1.0
O=[N+]([O-])c1ccc(N/N=C/c2ccc(O)c(O)c2O)c(S(=O)(=O)N2CCOCC2)c1	1.0
CC1CC2=C(NC(=S)NC2c2cccc(F)c2)/C(=C/c2cccc(F)c2)C1 (stereo unspecified)	0.0
Fc1ccc(/C=C2\CCCC3=C2NC(=S)NC3c2ccc(F)cc2)cc1 (stereo unspecified)	0.0
O=C(C1=NN(c2ccccc2)C2C(=O)N(c3ccccc3)C(=O)C12)c1ccccc1 (stereo unspecified)	1.0
Cc1c(NC2=C(Cl)C(=O)N(c3ccccc3Cl)C2=O)c(=O)n(-c2ccccc2)n1C	1.0
Clc1ccc2c(N/N=C/c3ccccc3Br)ccnc2c1	0.0
CCC(=O)N(CC)C1=C(O)c2ccccc2C(=O)C1=O	1.0
Cc1cccc(N2C(S)=C(C#N)C(=O)NC2c2cccs2)c1 (stereo unspecified)	0.0
Cc1c(NC2=C(Cl)C(=O)N(c3ccccc3)C2=O)c(=O)n(-c2ccccc2)n1C	0.0
COc1ccc(N2C(=O)C(Cl)=C(Nc3c(C)n(C)n(-c4ccccc4)c3=O)C2=O)cc1	0.0

----------
TARGET DESC: Bcl-2-related protein A1 (Homo sapiens)
ASSAY NOTES: inhibitors of Bim binding to Bfl-1, dose response, biochemical, multiplexed, bead-based flow cytometry (AID 1320); as to percent span (inhibition): test concentration not given here
CONDITION: Bim peptide-Bfl-1 binding, fluorescence, active compounds read high
Active and inactive are the calls of the source. How the calls were made is not given here.

MOLECULE	percent span (inhibition)
O=S1(=O)N=C(N(CCO)/N=C/C=C/c2ccccc2)c2ccccc21	inactive
O=S1(=O)N=C(N(CCO)/N=C/c2ccncc2)c2ccccc21	inactive
O=C(Cc1ccccc1)OCCNC(=O)c1cccnc1	inactive
COC(=O)c1ccc(-n2nnnc2SCC(=O)Nc2cc(OC)ccc2OC)cc1	inactive
COc1ccccc1Oc1ccc2c(c1)C(=O)N(c1ccccc1)C2=O	inactive
COc1ccc2cc(CN(CCc3ccccc3)Cc3nnnn3CC3CCCO3)c(=O)[nH]c2c1 (configuration not stated)	inactive
CCOc1ccccc1/C=N/NC(=O)CNC(=O)COc1ccccc1	inactive
O=C(CC1NCCNC1=O)Nc1cccc([N+](=O)[O-])c1 (configuration not stated)	inactive
COc1cc(/C=C2/NC(=O)N(Cc3ccccc3F)C2=O)ccc1O	inactive
Cc1cc(N2CCN(C)CC2)nc2ccc(NC(=S)N3CCN(c4ccc(F)cc4)CC3)cc12	inactive
Cc1ccc(C(=O)NNC(=O)c2ccc3ncccc3c2)cc1	inactive
Cc1nc(NC(=O)CC(C)C)sc1-c1csc(Nc2ccc(Cl)cc2)n1	inactive
COc1ccc(OC)c(Nc2ccc(C(=O)O)cc2[N+](=O)[O-])c1	inactive
Cc1ccccc1-n1nc(SCC(=O)O)sc1=S	inactive
Cc1ccc(N=Cc2c(O)n(-c3ccc4c(c3)OCO4)c(=O)c3ccccc23)cc1	inactive
Cc1cc(C)c[n+](-c2nc3ccccc3nc2C(=C=[N-])C#N)c1	inactive
COCCNc1nc(=S)[nH]c2cc(OC)c(OC)cc12	inactive
COc1cc2nc(=S)n(CCCN3CCOCC3)c(N)c2cc1OC	inactive
O=C1c2ccccc2C(=O)N1CN(C(=O)COc1ccc(Cl)cc1Cl)c1cccc(F)c1	inactive
Cn1c(=O)c2cc(S(=O)(=O)Nc3cc(C(=O)O)cc(C(=O)O)c3)ccc2n(C)c1=O	inactive
Fc1ccc(Cn2nnnc2C(c2ccc(Cl)cc2)N2CCSCC2)cc1 (configuration not stated)	inactive
Cc1ccc(-c2ccc(CCC(=O)O)n2NC(=O)c2cccs2)cc1	inactive
